Entry source: patent US8975265B2

biological target: His-tagged human recombinant kinase full-length Akt1 (Homo sapiens (Human)); experiment: Akt1 kinase assay (TR-FRET); details: 10 μM ATP; read-out: Akt1, median IC50
Sequence (P31749 whole entry): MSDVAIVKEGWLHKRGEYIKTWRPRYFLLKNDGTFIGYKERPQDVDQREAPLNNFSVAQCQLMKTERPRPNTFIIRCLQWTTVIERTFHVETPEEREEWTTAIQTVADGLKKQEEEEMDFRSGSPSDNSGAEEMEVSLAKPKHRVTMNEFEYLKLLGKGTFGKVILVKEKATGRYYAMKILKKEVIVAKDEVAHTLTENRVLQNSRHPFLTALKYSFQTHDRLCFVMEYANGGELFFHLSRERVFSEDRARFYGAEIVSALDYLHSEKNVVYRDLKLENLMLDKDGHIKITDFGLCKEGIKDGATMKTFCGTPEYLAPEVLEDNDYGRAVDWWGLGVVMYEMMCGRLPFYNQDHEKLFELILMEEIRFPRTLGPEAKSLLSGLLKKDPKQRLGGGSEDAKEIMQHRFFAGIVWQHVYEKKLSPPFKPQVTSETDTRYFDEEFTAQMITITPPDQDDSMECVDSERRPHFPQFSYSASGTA
As shown below, each of these compounds has a reported log10(IC50) value.
Form field - Quantity: IC50; Unit: nM; Scale: log10

Sample answers from the record:
- Nc1ccn2c(-c3ccccc3)c(-c3ccc(C4(N)CCC4)cc3)nc2c1: 2.71
- NC1(c2ccc(-c3nc4nc(O)ccn4c3-c3ccccc3)cc2)CCC1: 2.74
- Cn1cc(-c2ccn3c(-c4ccccc4)c(-c4ccc(C5(N)CCC5)cc4)nc3c2)cn1: 2.75
- COCCOc1ccn2c(-c3ccccc3)c(-c3ccc(C4(N)CCC4)cc3)nc2n1: 3.08

Problem: Value lookup for log10(IC50); key = COc1cc(COc2ccn3c(-c4ccccc4)c(-c4ccc(C5(N)CCC5)cc4)nc3n2)ccn1
Solution: 2.25

Problem: Value lookup for log10(IC50); key = NC(=O)c1cc(-c2ccn[nH]2)cn2c(-c3ccccc3)c(-c3ccc(C4(N)CCC4)cc3)nc12
Solution: 1.84

Problem: Value lookup for log10(IC50); key = Cc1cc(C(N)=O)c2nc(-c3ccc(C4(N)CCC4)cc3)c(-c3ccccc3)n2c1
Solution: 2.95

Problem: Value lookup for log10(IC50); key = COc1cc(-c2cnc[nH]2)cn2c(-c3ccccc3)c(-c3ccc(C4(N)CCC4)cc3)nc12
Solution: 2.14

Problem: Value lookup for log10(IC50); key = Cc1cc(-c2cccnc2)cn2c(-c3ccccc3)c(-c3ccc(C4(N)CCC4)cc3)nc12
Solution: 2.24

Problem: Value lookup for log10(IC50); key = CS(=O)(=O)Nc1ccc2nc(-c3ccc(C4(N)CCC4)cc3)c(-c3ccccc3)n2c1
Solution: 3.48

Problem: Value lookup for log10(IC50); key = CCOC(=O)c1cccn2c(-c3ccccc3)c(-c3ccc(C4(N)CCC4)cc3)nc12
Solution: 1.79

Problem: Value lookup for log10(IC50); key = Cc1cc(-c2ccc3nc(-c4ccc(C5(N)CCC5)cc4)c(-c4ccccc4)n3c2)[nH]n1
Solution: 2.84

Problem: Value lookup for log10(IC50); key = NC1(c2ccc(-c3nc4c(-c5ccn[nH]5)cccn4c3-c3ccccc3)cc2)CCC1
Solution: 1.81

Problem: Value lookup for log10(IC50); key = NC1(c2ccc(-c3nc4ccc(C5CC5)cn4c3-c3ccccc3)cc2)CCC1
Solution: 2.87

Problem: Value lookup for log10(IC50); key = N#Cc1ccn2c(-c3ccccc3)c(-c3ccc(C4(N)CCC4)cc3)nc2c1
Solution: 2.16

Problem: Value lookup for log10(IC50); key = NC(=O)Nc1ccn2c(-c3ccccc3)c(-c3ccc(C4(N)CCC4)cc3)nc2c1
Solution: 2.66

Problem: Value lookup for log10(IC50); key = NC1(c2ccc(-c3nc4ccccn4c3-c3ccccc3)cc2)CCC1
Solution: 2.18

Problem: Value lookup for log10(IC50); key = Cc1c(Cl)cn2c(-c3ccccc3)c(-c3ccc(C4(N)CCC4)cc3)nc2c1-c1ccn[nH]1
Solution: 2.27
